ASSAY_TARGET: T1, monkey GPC3-His protein (monkey)
T1 construct: Bought recombinant protein; also called monkey GPC3 protein
ASSAY_DETAILS: SPR, antibody captured on Protein A chip, monkey GPC3-His analyte;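 also: run at 25 °C with 240 s association and up to 600 s dissociation, double-referenced, kinetics fitted to a 1:1 Langmuir binding model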
log10 koff by entry:
Scale: decimal log of koff, koff in s⁻¹.

Some solved cases for reference:
# BINDER, VALUE
data = [
    ("F1.83.6 (antibody, human IgG1, kappa, V domains shown, Human-murine chimeric antibody) VH: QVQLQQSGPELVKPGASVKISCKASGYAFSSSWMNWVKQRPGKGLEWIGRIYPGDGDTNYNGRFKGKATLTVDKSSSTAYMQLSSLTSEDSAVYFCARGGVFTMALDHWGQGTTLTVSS VL: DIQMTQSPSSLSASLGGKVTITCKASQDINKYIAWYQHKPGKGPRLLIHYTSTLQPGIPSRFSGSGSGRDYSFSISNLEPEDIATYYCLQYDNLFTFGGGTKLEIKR", -3.30),
    ("F1.136.7 (antibody, human IgG1, kappa, V domains shown, Human-murine chimeric antibody) VH: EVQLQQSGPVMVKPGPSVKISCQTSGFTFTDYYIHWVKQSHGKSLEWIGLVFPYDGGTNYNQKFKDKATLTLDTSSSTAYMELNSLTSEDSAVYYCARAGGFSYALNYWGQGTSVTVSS VL: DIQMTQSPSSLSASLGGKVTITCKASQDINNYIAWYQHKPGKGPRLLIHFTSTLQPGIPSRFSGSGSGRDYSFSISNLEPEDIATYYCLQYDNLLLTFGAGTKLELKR", -4.54),
    ("F2.154.1 (antibody, human IgG1, kappa, V domains shown, Human-murine chimeric antibody) VH: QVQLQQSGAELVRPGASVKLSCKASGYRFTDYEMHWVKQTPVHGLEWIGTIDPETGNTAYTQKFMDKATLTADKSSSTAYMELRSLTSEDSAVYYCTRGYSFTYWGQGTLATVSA VL: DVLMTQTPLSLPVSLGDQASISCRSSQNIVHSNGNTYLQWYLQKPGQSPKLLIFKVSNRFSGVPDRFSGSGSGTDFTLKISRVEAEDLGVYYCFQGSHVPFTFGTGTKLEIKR", -3.30),
]

Query: Item under review: F1.92.17 (antibody, human IgG1, kappa, V domains shown, Human-murine chimeric antibody) VH: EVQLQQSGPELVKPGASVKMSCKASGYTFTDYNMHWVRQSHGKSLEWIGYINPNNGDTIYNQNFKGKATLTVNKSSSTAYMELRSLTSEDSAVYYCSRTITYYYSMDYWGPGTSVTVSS VL: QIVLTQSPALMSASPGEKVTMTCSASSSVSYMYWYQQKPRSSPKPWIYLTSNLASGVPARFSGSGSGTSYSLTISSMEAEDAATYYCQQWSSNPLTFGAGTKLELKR . Reported log10 koff?
Response: -3.86

Query: Item under review: F1.110.24 (antibody, human IgG1, kappa, V domains shown, Human-murine chimeric antibody) VH: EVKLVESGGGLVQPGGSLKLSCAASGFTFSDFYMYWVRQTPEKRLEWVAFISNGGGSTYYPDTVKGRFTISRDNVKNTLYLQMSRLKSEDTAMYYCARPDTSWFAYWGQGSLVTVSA VL: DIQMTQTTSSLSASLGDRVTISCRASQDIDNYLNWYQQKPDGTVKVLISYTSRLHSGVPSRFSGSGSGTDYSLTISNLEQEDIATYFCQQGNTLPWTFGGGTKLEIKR . Reported log10 koff?
Response: -3.47
